Test: qHTS for Inhibitors of ATXN expression: Validation of Cytotoxic Assay (AID 588349);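 also: cells exposed to compound for 72 hr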
Condition Parameters: cytotoxicity counter-screen for ATXN expression inhibitors, cell viability; series mostly up to 57.1 µM
Records with an inconclusive call do not appear. Calls of active or inactive are those of the source. Calls follow the shape of the dose curve; as a rule, active = well fitted cell-killing curve with a large enough effect; inconclusive = small, poorly fitted or top-dose-only effect, or effect the other way; inactive = flat fitted curve, though single readings scatter.
Your answer must be one of the following: active, inactive

Entry "CCCCNc1ccc(C(=O)OCCN(C)C)cc1" : call = ? inactive

Test call for this compound, please: "CN(C)CCOC(=O)COc1ccc(Cl)cc1" inactive

# lookup: test call for "CC(=O)OCC1=C(C(=O)O)N2C(=O)[C@@H](NC(=O)Cc3cccs3)[C@H]2SC1" inactive

For this compound, state the assay outcome: "CN(C)CC/C=C1\c2ccccc2COc2ccccc21" inactive

What classification did "CN(C)C/C=C(/c1ccc(Br)cc1)c1cccnc1" end up with in this test? inactive

For c1ccc2c(c1)CCCC2C1=NCCN1 (stereo not drawn) , what call appears in the results of this test? inactive

What was the test verdict on COC(=O)C1=C(C)NC(C)=C(C(=O)OCCN(C)Cc2ccccc2)C1c1cccc([N+](=O)[O-])c1 (stereo not drawn) ? active

Could you check what this test reported for "CCN1CCc2nc(N)oc2CC1" ? inactive

Hello, I am checking results. What call was entered for "CCCCCCCC/C=C\CCCCCCCC(=O)NCc1ccc(O)c(OC)c1" ? inactive

Test call for this compound, please: "CO[C@@]1(NC(=O)CSCC#N)C(=O)N2C(C(=O)O)=C(CSc3nnnn3C)CS[C@@H]21" inactive

Give the logged outcome of this assay for the following compound: "C[C@]12CCC(=O)C=C1CC[C@@H]1[C@@H]2C(=O)C[C@@]2(C)[C@H]1CC[C@]2(O)C(=O)CO" inactive

Field: outcome | Entry: "Cc1ccc(Cl)c(Nc2ccccc2C(=O)O)c1Cl" inactive

Per the assay record, what outcome was assigned to "C[C@]12C=CC(=O)C=C1CC[C@H]1[C@@H]3C[C@@H](O)[C@](O)(C(=O)CO)[C@@]3(C)C[C@H](O)[C@@]12F" ? inactive

Per the records of this test, what outcome belongs to "CCCCNC(=O)NS(=O)(=O)c1ccc(C)cc1" ? inactive

How was "NC(=O)c1ncn([C@@H]2O[C@H](CO)[C@@H](O)[C@H]2O)c1O" classified in this test? inactive

Fill in: this test's call for "CC(=O)Oc1cc(C(C)C)c(OCCN(C)C)cc1C" is ___ inactive

Given "NCCCNCCSP(=O)(O)O" , state the outcome it received in this test. inactive

Which outcome was assigned to "CC(C)(C)c1ccc(C(=O)CCCN2CCC(OC(c3ccccc3)c3ccccc3)CC2)cc1" in this test? inactive

Entry "NC(=O)N1c2ccccc2C=Cc2ccccc21" : call = ? inactive

# outcome recorded in this test, key = CC(C)NCC(O)c1cc(O)cc(O)c1 (stereo not drawn) inactive

Call for entry "Cc1scc2c1N(C(=O)CN1CCN(C)CC1)c1ccccc1NC2=O" : inactive

Per the records of this test, what outcome belongs to "Cc1nnc(SCC2=C(C(=O)O)N3C(=O)[C@@H](NC(=O)Cn4cnnn4)[C@H]3SC2)s1" ? inactive

What outcome does the record of this test show for "CCN1CCC[C@H]1CNC(=O)c1c(O)c(Cl)cc(Cl)c1OC" ? inactive

* * *

System: FAB9
Test: qHTS profiling for inhibitors of Plasmodium falciparum proliferation (AID 504749); also: nearly all actives have a fitted effect of over 60% in size
Condition Parameters: P. falciparum in erythrocytes, SYBR Green DNA, 72 h; series mostly up to 28.7 µM
Inconclusive results are not listed. Calls of active or inactive are those of the source. The call rests on the fitted dose curve; in most records, active means well fitted inhibition curve with a large enough effect; inconclusive means small, poorly fitted or top-dose-only effect; inactive means flat fitted curve, though single readings scatter.
Returns: one label drawn from active, inactive

Could you check what this test reported for "Nc1nc(N)c2nc(-c3ccccc3)c(N)nc2n1" ? active

Call for entry "CN(C)CCN(Cc1cccs1)c1ccccn1" : inactive

Record request — test call for CC(N=C(NC#N)Nc1ccncc1)C(C)(C)C (configuration not stated) inactive

Outcome logged for "FC(F)(F)c1ccccc1-n1ccnc1" in this assay: inactive

For "CN(C(=O)CCCOc1ccc2[nH]c(=O)ccc2c1)C1CCCCC1" , what call appears in the results of this test? inactive

Entry "CC(=O)[C@]1(O)Cc2c(O)c3c(c(O)c2[C@@H](O[C@H]2C[C@H](N)[C@H](O)[C@H](C)O2)C1)C(=O)c1ccccc1C3=O" : call = ? active

Assay outcome for "NC/C=C/C(=O)O" : what was it? inactive

Outcome logged for "CN=C(NC#N)NCCSCc1nc[nH]c1C" in this assay: inactive

How was "O=c1[nH]c(=O)n([C@H]2C[C@H](O)[C@@H](CO)O2)cc1Br" classified in this test? inactive

Record lookup: outcome of this test for "CC(C)(Oc1ccc(CCNC(=O)c2ccc(Cl)cc2)cc1)C(=O)O" ? inactive

Identify the outcome logged in this assay for the compound shown: "C#CCN(C)CCCOc1ccc(Cl)cc1Cl" inactive

Test call, this compound: "CN(C)C(=O)Oc1ccc[n+](C)c1" inactive

I'd appreciate the recorded outcome for "CN(C)CC/C=C1\c2ccccc2COc2ccccc21" from this test. inactive

GET /call?item= "O=C(O)CN(CCOCCOCCN(CC(=O)O)CC(=O)O)CC(=O)O" returns the recorded outcome of this test. inactive

What did this assay record as the result for "CCCOc1ccccc1-c1nc2n[nH]nc2c(=O)[nH]1" ? inactive

What outcome does the record of this test show for CNCCC(Oc1ccccc1OC)c1ccccc1 (configuration not stated) ? inactive

# fetch the recorded call for "COc1ccc(CN(CCN(C)C)c2ccccn2)cc1" here inactive

For "O=C(O)CCCCCCCC(=O)O" , what call appears in the results of this test? inactive

Recorded call for "CCOC(=O)c1cnc2c(cnn2CC)c1NN=C(C)C" ? inactive

For "CN(C)C(=O)Oc1cccc([N+](C)(C)C)c1" , which call appears in the assay record? inactive

Query: recorded result category for "CCCCNC(=O)NS(=O)(=O)c1ccc(C)cc1" in this test inactive

Which outcome did this test record for the compound C=CCc1ccccc1OCC(O)CNC(C)C (configuration not stated) ? inactive

Name the outcome recorded for "CC1=NS(=O)(=O)c2cc(Cl)ccc2N1" in the assay. inactive

Answer briefly: the call reported for "Cc1ccc(S(=O)(=O)NC(=O)NN2CCCCCC2)cc1" in this assay. inactive

Please indicate how the test categorized CCn1ccnc1CC1COc2ccccc2O1 (configuration not stated) . inactive

In this assay, the call recorded for "C[N+](C)(C)CCCCCCCCCC[N+](C)(C)C" was what? active

Each compound tested received a call. Report the one for CCOC(=O)C1=C(C)NC(C)=C(C(=O)OC)C1c1cccc(Cl)c1Cl (configuration not stated) . inactive

Kindly provide the recorded test outcome for the following compound: "C[N+](C)(C)CCOC(N)=O" inactive

Kindly provide the recorded test outcome for the following compound: "C[n+]1cc2c3c(ccc2c2ccc4cc5c(cc4c21)OCO5)OCO3" inactive

What was the test verdict on "Brc1c(NC2=NCCN2)ccc2nccnc12" ? inactive

Assay outcome for NC1=NCC2c3ccccc3Cc3ccccc3N12 (configuration not stated) : what was it? inactive

Outcome logged for "Cc1ccc(=O)n(-c2ccccc2)c1" in this assay: inactive

I'd appreciate the recorded outcome for CC(C(=O)O)c1ccc(CC2CCCC2=O)cc1 (configuration not stated) from this test. inactive

For "COCC(=O)O[C@]1(CCN(C)CCCc2nc3ccccc3[nH]2)CCc2cc(F)ccc2[C@@H]1C(C)C" , which call appears in the assay record? active

What call does the record list for "CCNC(=O)N1CCN(CCCC(c2ccc(F)cc2)c2ccc(F)cc2)CC1" ? active

Status in this test for "CN(C)CCCN1c2ccccc2Sc2ccc(C(F)(F)F)cc21" ? inactive

Dear colleague, could you share the recorded outcome for "O=C1NCN(c2ccccc2)C12CCN(CCCC(c1ccc(F)cc1)c1ccc(F)cc1)CC2" when you have a moment? inactive

* * *

System: WaGa
Test: qHTS assay to identify novel small-molecules to repurpose for Merkel cell carcinoma treatment (AID 1296009); also: % is scaled to controls: 0 for no effect and ±100 for the full control effect; nearly all actives have a fitted effect of over 60% in size
Condition Parameters: MCC and control cell lines, CellTiter-Glo viability, 72 h; series mostly up to 46 µM
Inconclusive results are not listed. The source made the active and inactive calls. Calls follow the shape of the dose curve; as a rule, active = well fitted inhibition curve with a large enough effect; inconclusive = small, poorly fitted or top-dose-only effect; inactive = flat fitted curve, though single readings scatter.
Reported Endpoint: activity change, negative = cytotoxicity

For orientation, consider the following solved cases.
CNCCC(Oc1ccccc1OC)c1ccccc1 (centres undefined) :: inactive
NS(=O)(=O)c1cc2c(cc1Cl)NC(C1CC3C=CC1C3)NS2(=O)=O (centres undefined) :: inactive
FC(F)(F)c1ccccc1-n1ccnc1 :: inactive
CCN1CCC[C@H]1CNC(=O)c1c(O)c(Cl)cc(Cl)c1OC :: inactive
CN1C[C@H](C(=O)N[C@]2(C)O[C@@]3(O)[C@@H]4CCCN4C(=O)[C@H](Cc4ccccc4)N3C2=O)C[C@@H]2c3cccc4[nH]cc(c34)C[C@H]21 :: inactive

The compound identified as "C[C@]12CCC(=O)C=C1CC[C@@H]1[C@@H]2C(=O)C[C@@]2(C)[C@H]1CC[C@]2(O)C(=O)CO" registered its activity change, negative = cytotoxicity at inactive

For "CN(C)C(=O)Oc1ccc[n+](C)c1" the compound record lists activity change, negative = cytotoxicity as inactive

Summary for this compound, "CN1CCN(CC(=O)N2c3ccccc3C(=O)Nc3cccnc32)CC1" : activity change, negative = cytotoxicity is 4.82% [at 4.84 µM] (inactive)

Per the record, "CN(C)CC/C=C1\c2ccccc2COc2ccccc21" has activity change, negative = cytotoxicity of inactive

# activity change, negative = cytotoxicity of "NC(=O)N1c2ccccc2C=Cc2ccccc21" = inactive

# compound CC(N=C(NC#N)Nc1ccncc1)C(C)(C)C (centres undefined) ; its activity change, negative = cytotoxicity = inactive

Short answer for COc1ccc(CCN(C)CCCC(C#N)(c2cc(OC)c(OC)c(OC)c2)C(C)C)cc1OC (centres undefined) : activity change, negative = cytotoxicity was inactive

In plain terms, Nc1c2c(nc3ccccc13)CCCC2O (centres undefined) has a documented activity change, negative = cytotoxicity of inactive

Reported activity change, negative = cytotoxicity for "CN1CCN(C2=Nc3ccccc3Oc3ccc(Cl)cc32)CC1" was inactive

For NC1=NCC2c3ccccc3Cc3ccccc3N12 (centres undefined) the compound record lists activity change, negative = cytotoxicity as inactive

Field activity change, negative = cytotoxicity (entry "C(=C\c1ccccc1)/CN1CCN(C(c2ccccc2)c2ccccc2)CC1" ) reads inactive

Lookup result for "CN(C(=O)CCCOc1ccc2[nH]c(=O)ccc2c1)C1CCCCC1" ; measured activity change, negative = cytotoxicity: inactive

// activity change, negative = cytotoxicity value for CCN(Cc1ccncc1)C(=O)C(CO)c1ccccc1 (centres undefined) : inactive

For reference, reported activity change, negative = cytotoxicity for "O=C(O)CCCCCCCC(=O)O" stands at inactive

Record summary for NC(Cc1ccc(Cl)cc1)C(=O)O (centres undefined) : reported activity change, negative = cytotoxicity = 12.8% [at 0.597 µM] (inactive)

Record summary for "C[C@@H](O)[C@H]1C(=O)N2C(C(=O)O)=C(SCCN=CN)C[C@H]12" : reported activity change, negative = cytotoxicity = inactive

Entry "CC1=NS(=O)(=O)c2cc(Cl)ccc2N1" , activity change, negative = cytotoxicity reported as inactive

Value of activity change, negative = cytotoxicity reported for the compound CC(=O)OC(C)C[N+](C)(C)C (centres undefined) is inactive

# activity change, negative = cytotoxicity (compound: "NCCCNCCSP(=O)(O)O" ) is 14.2% [at 9.22 µM] (inactive)
